Target: GPR139 (Homo sapiens, UniProt Q6DWJ6)
Construct: host or cells: CHO-k1
Sequence (Q6DWJ6 whole entry): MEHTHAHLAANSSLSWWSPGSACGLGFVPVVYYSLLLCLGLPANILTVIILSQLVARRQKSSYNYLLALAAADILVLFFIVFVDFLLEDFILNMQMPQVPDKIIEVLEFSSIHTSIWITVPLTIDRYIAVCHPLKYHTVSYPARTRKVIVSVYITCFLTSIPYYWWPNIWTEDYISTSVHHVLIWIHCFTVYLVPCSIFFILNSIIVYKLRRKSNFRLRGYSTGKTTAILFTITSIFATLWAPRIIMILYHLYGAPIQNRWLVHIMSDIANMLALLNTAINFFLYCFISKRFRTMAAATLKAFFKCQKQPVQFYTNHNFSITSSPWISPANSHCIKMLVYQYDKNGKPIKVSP
Test: Fluo-4 calcium mobilization assay, agonist mode, concentration-response curves in CHO-GPR139 cells
Assay type: cell-based
Settings: CHO-GPR139 cells; at least three independent concentration-response curves in duplicate; read-out: EC50
pEC50: −log10 of the molar value.
molecules and their reported pEC50
observation type: pEC50

molecule="CC1Cc2ccccc2N1C(=O)CN1C(=O)NC(C)(c2ccc3c(c2)OCCO3)C1=O (centres unmarked)" observation_type=pEC50 measurement=6.06
molecule="CC1(c2cccc3ccccc23)NC(=O)N(CC(=O)NCCc2ccccc2)C1=O (centres unmarked)" observation_type=pEC50 measurement=6.46
molecule="CC1(c2ccc3c(c2)OCCO3)NC(=O)N(CC(=O)c2c[nH]c3ccccc23)C1=O (centres unmarked)" observation_type=pEC50 measurement=6.34
molecule="CC1(c2cccc3ccccc23)NC(=O)N(CC(=O)c2ccc(CCNS(C)(=O)=O)s2)C1=O (centres unmarked)" observation_type=pEC50 measurement=6.38
molecule="CCc1cccc2c(C(=O)CN3C(=O)NC(C)(c4ccc5c(c4)OCO5)C3=O)c[nH]c12 (centres unmarked)" observation_type=pEC50 measurement=6.42
molecule="CC(C)OCCCNC(=O)NC(C)c1ccccc1Cl (centres unmarked)" observation_type=pEC50 measurement=6.22
molecule="CC1(c2ccc3c(c2)OCO3)NC(=O)N(CC(=O)N2CCCc3ccccc32)C1=O (centres unmarked)" observation_type=pEC50 measurement=6.47
molecule="CC(C)COCCCNC(=O)NC(C)c1ccc(Br)cc1 (centres unmarked)" observation_type=pEC50 measurement=6.54
molecule="CC1(c2ccc3c(c2)OCO3)NC(=O)N(CC(=O)c2ccc(Cl)s2)C1=O (centres unmarked)" observation_type=pEC50 measurement=6.10
molecule="Cc1ccc(C(=O)CN2C(=O)NC(C)(c3ccc4c(c3)OCO4)C2=O)cc1 (centres unmarked)" observation_type=pEC50 measurement=6.00
molecule="C=CCN(CC=C)C(=O)CN1C(=O)NC(C)(c2ccc3c(c2)OCO3)C1=O (centres unmarked)" observation_type=pEC50 measurement=6.41
molecule="C=CCN(CC=C)C(=O)CN1C(=O)NC(C)(c2ccc3c(c2)OCCO3)C1=O (centres unmarked)" observation_type=pEC50 measurement=6.68
molecule="O=C(NCCCc1nc2ccccc2[nH]1)NC1CCSc2ccc(F)cc21 (centres unmarked)" observation_type=pEC50 measurement=6.11
molecule="CC1(c2cccc3ccccc23)NC(=O)N(CC(=O)c2cc3ccccc3o2)C1=O (centres unmarked)" observation_type=pEC50 measurement=6.47
molecule=CC(C)(C)c1cc(NC(=O)Nc2ccc(-c3cn4c(n3)sc3cc(OCCN5CCOCC5)ccc34)cc2)no1 observation_type=pEC50 measurement=6.31
molecule="CC(NC(=O)NCC(=O)NCC1CC1)c1ccc(F)cc1Cl (centres unmarked)" observation_type=pEC50 measurement=6.55
molecule="CC(C)OCCCNC(=O)NC(C)c1cccc(Cl)c1 (centres unmarked)" observation_type=pEC50 measurement=6.03
molecule="CC1(c2ccc3c(c2)OCO3)NC(=O)N(CC(=O)N2CCc3ccccc32)C1=O (centres unmarked)" observation_type=pEC50 measurement=6.72
molecule="CC1(c2cccc3ccccc23)NC(=O)N(CC(=O)N2CCCCCC2)C1=O (centres unmarked)" observation_type=pEC50 measurement=6.13
molecule="CC(C)COCCCNC(=O)NC(C)c1ccc(Cl)cc1Cl (centres unmarked)" observation_type=pEC50 measurement=6.74
molecule="C=C(C)CN(CC)C(=O)CN1C(=O)NC(C)(c2cccc3ccccc23)C1=O (centres unmarked)" observation_type=pEC50 measurement=6.31
molecule="COc1cc(OC)cc(C(=O)NN2C(=O)NC(C)(c3ccccc3)C2=O)c1 (centres unmarked)" observation_type=pEC50 measurement=7.05
molecule="CC1(c2ccc3c(c2)OCCO3)NC(=O)N(CC(=O)c2ccc[nH]2)C1=O (centres unmarked)" observation_type=pEC50 measurement=6.46
molecule="CC1(c2ccc3c(c2)OCO3)NC(=O)N(CC(=O)N2CCCCC2)C1=O (centres unmarked)" observation_type=pEC50 measurement=6.12
molecule="COc1ccc(C(=O)CN2C(=O)NC(C)(c3ccc4c(c3)OCO4)C2=O)cc1OC (centres unmarked)" observation_type=pEC50 measurement=6.10
molecule="COc1ccc(OC)c(C(=O)CN2C(=O)NC(C)(c3ccc4c(c3)OCO4)C2=O)c1 (centres unmarked)" observation_type=pEC50 measurement=6.27
